Reference for the values: the RNAGym collection of RNA variant scans (doi:10.7554/elife.80360)

B1: CPEB3 Ribozyme (parent)
chain: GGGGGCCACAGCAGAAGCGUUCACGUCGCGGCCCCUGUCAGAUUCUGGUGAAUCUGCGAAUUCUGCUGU

Variants of: B1
Assay: self-cleavage, relative activity (ratio to wild type); higher = more cleavage; co-transcriptional
Please go through the items and note down their self-cleavage.

Qu. Please look up its self-cleavage: U21A C34G
Ans. 0.606

Qu. Item C9U A40C has what recorded self-cleavage?
Ans. 0.841

Qu. Which self-cleavage reading was recorded for the variant C34G C39U ?
Ans. 0.439

Qu. Need self-cleavage of C33G G56A , thanks.
Ans. 0.496

Qu. State the recorded self-cleavage for this entry: A52G C57A
Ans. 0.343

Qu. For the variant shown here, C32U G47C , give the reported self-cleavage.
Ans. 0.97

Qu. Record request: self-cleavage value, item U49A U69A
Ans. 0.976
